Biological target: T1, human MAdCAM expressed on cells (human, UniProt Q13477 19-382)
T1 construct: whole, on cells
T1 sequence (looked up): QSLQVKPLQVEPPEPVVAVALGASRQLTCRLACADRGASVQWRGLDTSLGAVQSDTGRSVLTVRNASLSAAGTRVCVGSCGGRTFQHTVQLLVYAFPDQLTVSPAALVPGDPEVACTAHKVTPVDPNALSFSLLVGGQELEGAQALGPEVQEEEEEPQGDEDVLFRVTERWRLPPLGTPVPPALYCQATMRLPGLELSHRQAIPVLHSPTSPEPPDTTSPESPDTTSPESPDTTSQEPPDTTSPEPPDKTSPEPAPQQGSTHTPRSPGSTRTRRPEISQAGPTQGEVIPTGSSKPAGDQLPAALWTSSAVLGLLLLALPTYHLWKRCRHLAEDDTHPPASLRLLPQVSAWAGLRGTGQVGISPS
Experiment: cell binding
measured.parameter: binding result

Entry MAdCAM antibody Table 1 clone 59 (scFv) scFv: EVQLLESGGGLVQPGGSLRLSCAASGFTFSDFWMHWVRQAPGKGLEWISYISGDSGYTNYADSVKGRFTISRDNSKNTLYLQMNSLRAEDTAVYYCARDRPYYYYMDVWGKGTTVTVSSGGGGSGGGGSGGGGSGGGGSDIQMTQSPSSLSASVGDRVTITCRASQSVSRSLAWYQQKPGKAPKLLIYAASSLQSGVPSRFSGSGSGTDFTLTISSLQPEDFATYYCQQYKSYPVTFGQGTKVEIK , binding result reported as binds

Field binding result (entry MAdCAM antibody Table 1 clone 45 (scFv) scFv: EVQLLESGGGLVQPGGSLRLSCAASGFSVSSNYMSWVRQAPGKGLEWVAGISYDGSSKPYADSVKGRFTISRDNSKNTLYLQMNSLRAEDTAVYYCARSRGIAARPLQHWGQGTLVTVSSGGGGSGGGGSGGGGSGGGGSDIVMTQSPDSLAVSLGERATINCKSSQSVLYSSNNKNYLAWYQQKPGQPPKLLIYWASTRQSGVPDRFSGSGSGTDFTLTISSLQAEDVAVYYCHQYYGHPPTFGGGTKVEIK ) reads binds

binder MAdCAM antibody Table 1 clone 26 (scFv) scFv: QVQLVQSGAEVKKPGASVKVSCKASGYTLTTWYMYWVRQAPGQGLEWMGWINPNRGATNYAQKFQGRVTMTRDTSTSTVYMELSSLRSEDTAVYYCAKGDLWGAMDVWGQGTTVTVSSGGGGSGGGGSGGGGSGGGGSDIQMTQSPSSLSASVGDRVTITCRASDNIGSWLAWYQQKPGKAPKLLIYAASSLQSGVPSRFSGSGSGTDFTLTISSLQPEDFATYYCQQGYSTPPTFGQGTKVEIK , binding result observed: binds
